Where these numbers come from: paper PMC5297809

Test system: Candida albicans ATCC 10231
Assay: broth microdilution MIC/MFC
Type: cell-based
Settings: ATCC10231, C. albicans ATCC 10231, read-out: MFC

- compound: "O=C1CSC(Nc2cccc3ccccc23)=N1 [Compound 8]"
  endpoint-unit: "µg/mL"
  MFC: 0.24
- compound: "O=C1N=C(Nc2cccc3ccccc23)SC1=Cc1csc(-c2ccccc2)n1 [Compound 9d]"
  endpoint-unit: "µg/mL"
  MFC: 15.6
- compound: "C=CCNC1=NC(=O)C(=Cc2coc3ccc(Cl)cc3c2=O)S1 [Compound 3e]"
  endpoint-unit: "µg/mL"
  MFC: 62.5
- compound: "O=C1N=C(Nc2cccc3ccccc23)SC1=Cc1coc2ccc(Cl)cc2c1=O [Compound 9e]"
  endpoint-unit: "µg/mL"
  MFC: 15.6
- compound: "O=C1N=C(Nc2cccc3ccccc23)SC1=Cc1ccc(Cl)cc1Cl [Compound 9b]"
  endpoint-unit: "µg/mL"
  MFC: 0.03
- compound: "O=C1N=C(Nc2ccccc2)SC1=Cc1csc(-c2ccccc2)n1 [Compound 6d]"
  endpoint-unit: "µg/mL"
  MFC: 7.81
- compound: "O=C1N=C(Nc2ccccc2)SC1=Cc1coc2ccc(Cl)cc2c1=O [Compound 6e]"
  endpoint-unit: "µg/mL"
  MFC: 3.9
- compound: "C=CCNC1=NC(=O)C(=Cc2cccc(Cl)c2)S1 [Compound 3a]"
  endpoint-unit: "µg/mL"
  MFC: 31.2
- compound: "C=CCNC1=NC(=O)C(=Cc2cccc(Br)c2)S1 [Compound 3f]"
  endpoint-unit: "µg/mL"
  MFC: 3.9

====

Test system: Candida albicans ATCC 10231
Assay: broth microdilution MIC/MFC
Format: cell-based
Settings: ATCC10231, C. albicans ATCC 10231, read-out: MFC
value-type: log10(MFC) (log10 of the value in µg/mL)

- compound: "CNC1=NC(=O)CS1"
  system: "Candida albicans ATCC 10231"
  value-type: "log10(MFC)"
  experimental-result: -1.52
- compound: "O=C1N=C(Nc2cccc3ccccc23)SC1=Cc1ccc([N+](=O)[O-])cc1"
  system: "Candida albicans ATCC 10231"
  value-type: "log10(MFC)"
  experimental-result: 0.59
- compound: "C=CCNC1=NC(=O)C(=Cc2ccc(O)cc2)S1"
  system: "Candida albicans ATCC 10231"
  value-type: "log10(MFC)"
  experimental-result: -0.32
- compound: "O=C1N=C(Nc2ccccc2)SC1=Cc1cccc(Cl)c1"
  system: "Candida albicans ATCC 10231"
  value-type: "log10(MFC)"
  experimental-result: 1.49
- compound: "CC(=O)N1CCN(c2ccc(OCC3COC(Cn4ccnc4)(c4ccc(Cl)cc4Cl)O3)cc2)CC1 (centres unmarked) [Ketoconazole, reference compound]"
  system: "Candida albicans ATCC 10231"
  value-type: "log10(MFC)"
  experimental-result: 1.19
- compound: "C=CCNC1=NC(=O)CS1"
  system: "Candida albicans ATCC 10231"
  value-type: "log10(MFC)"
  experimental-result: -0.62
- compound: "OC(Cn1cncn1)(Cn1cncn1)c1ccc(F)cc1F [Fluconazole, reference compound]"
  system: "Candida albicans ATCC 10231"
  value-type: "log10(MFC)"
  experimental-result: 1.49
- compound: "C=CCNC1=NC(=O)C(=Cc2ccc([N+](=O)[O-])cc2)S1"
  system: "Candida albicans ATCC 10231"
  value-type: "log10(MFC)"
  experimental-result: 1.49

====

Experiment: lipophilicity by RP-TLC with PCA
Format: physicochemical
Parameters: key: PCA scores of compounds computed from Rf data
Settings: score of second principal component of Rf data
Measured P2 by item

- compound: "O=C1N=C(Nc2cccc3ccccc23)SC1=Cc1coc2ccc(Cl)cc2c1=O [Compound 9e]"
  P2: 0.708
- compound: "C=CCNC1=NC(=O)C(=Cc2cccc(Cl)c2)S1 [Compound 3a]"
  P2: "−0.268"
- compound: "C=CCNC1=NC(=O)C(=Cc2ccc(O)cc2)S1 [Compound 3h]"
  P2: 0.056
- compound: "C=CCNC1=NC(=O)C(=Cc2csc(-c3ccccc3)n2)S1 [Compound 3d]"
  P2: "−0.241"
- compound: "O=C1N=C(Nc2ccccc2)SC1=Cc1ccc(Cl)cc1Cl [Compound 6b]"
  P2: "−0.186"
- compound: "O=C1N=C(Nc2ccccc2)SC1=Cc1ccc([N+](=O)[O-])cc1 [Compound 6c]"
  P2: "−0.304"
- compound: "O=C1N=C(Nc2cccc3ccccc23)SC1=Cc1cccc(Cl)c1 [Compound 9a]"
  P2: "−0.239"
- compound: "C=CCNC1=NC(=O)CS1 [Compound 2, 2-(allylamino)thiazol-4(5H)-one]"
  P2: 0.879
- compound: "O=C1CSC(Nc2cccc3ccccc23)=N1 [Compound 8]"
  P2: "−0.163"
- compound: "O=C1N=C(Nc2ccccc2)SC1=Cc1csc(-c2ccccc2)n1 [Compound 6d]"
  P2: "−0.359"
- compound: "C=CCNC1=NC(=O)C(=Cc2coc3ccc(Cl)cc3c2=O)S1 [Compound 3e]"
  P2: "−0.354"
- compound: "O=C1N=C(Nc2cccc3ccccc23)SC1=Cc1ccc([N+](=O)[O-])cc1 [Compound 9c]"
  P2: 0.228
- compound: "O=C1N=C(Nc2ccccc2)SC1=Cc1coc2ccc(Cl)cc2c1=O [Compound 6e]"
  P2: "−0.443"
- compound: "C=CCNC1=NC(=O)C(=Cc2ccc(O)c(OC)c2)S1 [Compound 3g]"
  P2: 0.453
- compound: "O=C1CSC(Nc2ccccc2)=N1 [Compound 5, 2-(phenylamino)thiazol-4(5H)-one]"
  P2: 0.238
- compound: "C=CCNC1=NC(=O)C(=Cc2ccc(Cl)cc2Cl)S1 [Compound 3b]"
  P2: "−0.062"
- compound: "O=C1N=C(Nc2cccc3ccccc23)SC1=Cc1csc(-c2ccccc2)n1 [Compound 9d]"
  P2: 0.618
- compound: "O=C1N=C(Nc2ccccc2)SC1=Cc1cccc(Cl)c1 [Compound 6a]"
  P2: "−0.534"
- compound: "C=CCNC1=NC(=O)C(=Cc2ccc([N+](=O)[O-])cc2)S1 [Compound 3c]"
  P2: "−0.259"
- compound: "O=C1N=C(Nc2cccc3ccccc23)SC1=Cc1ccc(Cl)cc1Cl [Compound 9b]"
  P2: 0.232

====

Test: lipophilicity by RP-TLC with PCA
Type: physicochemical
Settings: RP-TLC regression slope (specific hydrophobic surface area)
Measured b by item
value-type: b

- smiles-string: "O=C1N=C(Nc2cccc3ccccc23)SC1=Cc1cccc(Cl)c1"
  value-type: "b"
  experimental-result: "−4.1292"
- smiles-string: "C=CCNC1=NC(=O)C(=Cc2ccc(Cl)cc2Cl)S1"
  value-type: "b"
  experimental-result: "−3.6102"
- smiles-string: "O=C1N=C(Nc2cccc3ccccc23)SC1=Cc1coc2ccc(Cl)cc2c1=O"
  value-type: "b"
  experimental-result: "−3.319"
- smiles-string: "O=C1CSC(Nc2ccccc2)=N1"
  value-type: "b"
  experimental-result: "−2.2931"
- smiles-string: "O=C1N=C(Nc2ccccc2)SC1=Cc1coc2ccc(Cl)cc2c1=O"
  value-type: "b"
  experimental-result: "−3.9066"
- smiles-string: "C=CCNC1=NC(=O)C(=Cc2cccc(Cl)c2)S1"
  value-type: "b"
  experimental-result: "−3.6152"
- smiles-string: "O=C1N=C(Nc2ccccc2)SC1=Cc1ccc([N+](=O)[O-])cc1"
  value-type: "b"
  experimental-result: "−3.3696"
- smiles-string: "C=CCNC1=NC(=O)C(=Cc2ccc([N+](=O)[O-])cc2)S1"
  value-type: "b"
  experimental-result: "−3.314"
- smiles-string: "C=CCNC1=NC(=O)C(=Cc2coc3ccc(Cl)cc3c2=O)S1"
  value-type: "b"
  experimental-result: "−3.9184"
- smiles-string: "O=C1N=C(Nc2ccccc2)SC1=Cc1cccc(Cl)c1"
  value-type: "b"
  experimental-result: "−3.9258"
- smiles-string: "O=C1N=C(Nc2cccc3ccccc23)SC1=Cc1ccc(Cl)cc1Cl"
  value-type: "b"
  experimental-result: "−4.3675"
- smiles-string: "C=CCNC1=NC(=O)C(=Cc2csc(-c3ccccc3)n2)S1"
  value-type: "b"
  experimental-result: "−3.7366"

====

Measured P1 by item
Assay: lipophilicity by RP-TLC with PCA
Format: physicochemical
Set-up: key: PCA scores of compounds computed from Rf data
Conditions: score of first principal component of Rf data; low P1 = highly lipophilic
value-type: P1

- smiles-string: "C=CCNC1=NC(=O)C(=Cc2cccc(Cl)c2)S1"
  experimental-result: "−0.090"
- smiles-string: "C=CCNC1=NC(=O)C(=Cc2csc(-c3ccccc3)n2)S1"
  experimental-result: "−0.549"
- smiles-string: "C=CCNC1=NC(=O)C(=Cc2ccc(Cl)cc2Cl)S1"
  experimental-result: "−1.263"
- smiles-string: "C=CCNC1=NC(=O)C(=Cc2ccc(O)c(OC)c2)S1"
  experimental-result: 3.365
- smiles-string: "O=C1CSC(Nc2ccccc2)=N1"
  experimental-result: 2.796
